# Test system: Canis familiaris
# Experimental details: Effect on inhibition of the extent of ex vivo ADP-induced aggregation in canine platelet rich plasma at dose of 0.5 mg/kg po
# Format: functional
# Measurement setup: Canis lupus familiaris
Readout kind: inhibition in vivo at 0.5 mg/kg (%)
Please state the figure in %; there is no need to write the unit.

As a guide, the following entries are already answered.
smiles_record=C[C@H](CC(=O)O)NC(=O)CN1CCc2ccc(N3CCNCC3)cc2C1=O endpoint_result=100
smiles_record=O=C(O)C[C@@H](CCc1ccccc1)NC(=O)CN1CCc2ccc(N3CCNCC3)cc2C1=O endpoint_result=20
smiles_record=C#C[C@H](CC(=O)O)NC(=O)Cn1c(=O)[nH]c2ccc(N3CCNCC3)cc2c1=O endpoint_result=0
smiles_record=C#C[C@H](CC(=O)O)NC(=O)CN1CCc2cc(F)c(N3CCNCC3)cc2C1=O endpoint_result=95

Query: Provide only the value of recorded inhibition in vivo at 0.5 mg/kg for C#C[C@H](CC(=O)O)NC(=O)CN1CCc2cc(Cl)c(N3CCNCC3)cc2C1=O
Reply: 80

Query: Answer with reported inhibition in vivo at 0.5 mg/kg of O=C(O)C[C@H](NC(=O)CN1CCc2ccc(N3CCNCC3)cc2C1=O)c1cccnc1
Reply: 100

Query: Check the records and state inhibition in vivo at 0.5 mg/kg for C#C[C@H](CC(=O)OCC)NC(=O)CN1CCc2ccc(N3CCNCC3)c(Cl)c2C1=O
Reply: 100

Query: Give a short answer stating reported inhibition in vivo at 0.5 mg/kg for CCOC(=O)C[C@H](NC(=O)CN1CCc2ccc(N3CCNCC3)cc2C1=O)c1cccnc1 .
Reply: 75
